# TEST_SYSTEM: UniProt:Q9JI35
# ASSAY_PROTOCOL: Displacement of [3H]Nalpha-methylhistamine from histamine H3 receptor in guinea pig brain at 1 uM
ENDPOINT_NAME: inhibition (%)

The cases that follow already have their inhibition on record.
## Input GET /values?readout=inhibition&item= O=C(C1CCN(Cc2ccccn2)CC1)N1CCC(n2c(=O)[nH]c3ccccc32)CC1
## Output 40

## Input Proceed to Cn1cc(CN2CCC(C(=O)N3CCC(n4c(=O)[nH]c5ccccc54)CC3)CC2)c2ccccc21
## Output 30

(a) Cn1ccc(CN2CCC(C(=O)N3CCC(n4c(=O)[nH]c5ccccc54)CC3)CC2)c1
(b) O=C(c1ccncc1)N1CCC(C(=O)N2CCC(n3c(=O)[nH]c4ccccc43)CC2)CC1
## Input // task: argmin of inhibition over [ a , b ] Kindly state the label of the option you pick.
## Output b
(b: 11%, a: 42%)

---

# TEST_SYSTEM: Cytochrome P450 3A4 (Homo sapiens, UniProt P08684)
# Sequence (P08684 whole entry): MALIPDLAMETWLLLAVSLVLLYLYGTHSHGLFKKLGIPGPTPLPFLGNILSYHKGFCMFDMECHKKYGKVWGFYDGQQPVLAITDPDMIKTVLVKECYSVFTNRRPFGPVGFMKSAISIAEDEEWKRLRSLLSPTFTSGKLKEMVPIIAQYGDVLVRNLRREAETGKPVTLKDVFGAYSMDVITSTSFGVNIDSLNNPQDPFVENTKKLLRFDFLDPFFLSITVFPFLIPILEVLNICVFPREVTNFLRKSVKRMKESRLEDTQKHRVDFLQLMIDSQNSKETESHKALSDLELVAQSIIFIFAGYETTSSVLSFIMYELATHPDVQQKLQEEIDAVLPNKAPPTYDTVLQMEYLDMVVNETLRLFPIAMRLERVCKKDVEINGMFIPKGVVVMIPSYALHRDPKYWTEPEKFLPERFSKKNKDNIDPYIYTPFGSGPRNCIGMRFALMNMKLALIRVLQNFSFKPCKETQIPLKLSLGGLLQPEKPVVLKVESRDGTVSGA
ENDPOINT_NAME: IC50 (µM)

The cases that follow already have their IC50 on record.
## Input GET /values?readout=IC50&item= O=C(C1CCN(Cc2ccncc2)CC1)N1CCC(n2c(=O)n(CCN3CCCCC3)c3ccccc32)CC1
## Output 30

## Input Proceed to CC(C)OCCn1c(=O)n(C2CCN(C(=O)C3CCN(Cc4ccncc4)CC3)CC2)c2ccccc21
## Output 6

## Input Proceed to O=C(C1CCN(Cc2ccncc2)CC1)N1CCC(n2c(=O)n(CCOc3ccccc3)c3ccccc32)CC1
## Output 9

## Input Proceed to O=C(C1CCN(Cc2ccncc2)CC1)N1CCC(n2c(=O)[nH]c3ccccc32)CC1
## Output 9.5

## Input Proceed to O=C(C1CCN(Cc2ccncc2)CC1)N1CCC(n2c(=O)n(Cc3cccc(Cl)c3)c3ccccc32)CC1
## Output 0.3

(a) O=C(C1CCN(Cc2ccncc2)CC1)N1CCC(n2c(=O)n(Cc3ccccc3)c3ccccc32)CC1
(b) CC(C)Cn1c(=O)n(C2CCN(C(=O)C3CCN(Cc4ccncc4)CC3)CC2)c2ccccc21
## Input // task: argmin of IC50 over [ a , b ] Kindly state the label of the option you pick.
## Output a
(a: 0.4 µM, b: 1.5 µM)

---

Histamine H3 receptor (Cavia porcellus, UniProt Q9JI35) data, read-out Ki
Sequence (Q9JI35 whole entry): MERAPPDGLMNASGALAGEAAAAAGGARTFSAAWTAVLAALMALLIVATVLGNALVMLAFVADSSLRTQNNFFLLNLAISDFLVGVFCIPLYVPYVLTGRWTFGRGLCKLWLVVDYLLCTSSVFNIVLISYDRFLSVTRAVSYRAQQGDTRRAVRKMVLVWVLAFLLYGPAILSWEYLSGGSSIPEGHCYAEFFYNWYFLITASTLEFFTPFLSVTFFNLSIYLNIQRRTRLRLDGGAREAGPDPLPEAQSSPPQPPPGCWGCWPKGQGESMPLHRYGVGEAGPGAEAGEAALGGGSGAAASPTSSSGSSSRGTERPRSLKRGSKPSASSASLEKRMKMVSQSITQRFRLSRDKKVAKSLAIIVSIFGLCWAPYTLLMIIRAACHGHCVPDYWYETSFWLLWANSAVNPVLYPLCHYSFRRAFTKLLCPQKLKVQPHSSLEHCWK
ENDPOINT_NAME: Ki (nM)

## Input GET /values?readout=Ki&item= O=C(C1CCN(Cc2ccncc2)CC1)N1CCC(n2c(=O)n(Cc3ccc(Cl)cc3)c3ccccc32)CC1
## Output 0.9

(P) O=C(C1CCN(Cc2ccncc2)CC1)N1CCC(O)(Cc2ccccc2)CC1
(Q) O=C(C1CCN(Cc2ccncc2)CC1)N1CCN(Cc2cccc(Cl)c2)CC1
## Input // task: argmin of Ki over [ P , Q ] Kindly state the label of the option you pick.
## Output Q

Data provenance: ChEMBL document CHEMBL1221311
